molecular target: T1, HLA-DR1 (DRB1*0101), purified (human); assay: competition on purified HLA-DR (DRB1*0101) against biotinylated HA 306-318 (1 nM, pH 6); fluorescence assay
T1 construct: mature
property-measured: IC50 (pM)

binder	obs-value
ACYEFLWGPRALVETS [peptide MAGE-3 267-282 (ACYEFLWGPRALVETS)]	400

These measurements were taken from patent US20040077045A1.
